Kindly state IC50 for each of the entries shown.
Test system: pERK in MKN1 cells
Test: pERK inhibition, In-Cell Western (LI-COR Odyssey), MKN1 cells
Type: cell-based
Measurement setup: Homo sapiens, MKN-1, Table B1; MKN1 or H358 cells (table does not say which); 0.5-1 hour incubation; read-out: IC50 (nM), pERK inhibition
The response must be a number in nM with no trailing unit.

Readout IC50 for Cc1c(C#N)cccc1[C@@H](C)Nc1nnc(N2CC(N(C)C)C2)c2cnc(N3C[C@H]4C[C@@H]3CO4)cc12 [Example P-180] , test system pERK in MKN1 cells, was 53.4

Readout IC50 for Cc1c(C#N)cccc1[C@@H](C)Nc1nnc(C)c2c(C)nc(N3CCN(C)CC3)cc12 [Example P-189] , test system pERK in MKN1 cells, was 57

Readout IC50 for Cc1c(C#N)cccc1[C@@H](C)Nc1nnc(C)c2cc(F)c(N(C)[C@H]3CCN(C)C3)cc12 [Example P-179] , test system pERK in MKN1 cells, was 84.7

Readout IC50 for COC1(c2cc3c(N[C@H](C)c4cccc(C#N)c4C)nnc(C)c3cn2)CCN(C)CC1 [Example P-69] , test system pERK in MKN1 cells, was 849

Readout IC50 for Cc1nnc(N[C@H](C)c2cccc(C(F)F)c2F)c2cc(N3CCC34CNC4)ncc12 [Example P-237] , test system pERK in MKN1 cells, was 182

Readout IC50 for Cc1c(C#N)cccc1[C@@H](C)Nc1nnc(C)c2cc(Cl)c(N(C)[C@@H]3CCN(C)C3)cc12 [Example P-194] , test system pERK in MKN1 cells, was 231

Readout IC50 for Cc1c(C#N)cccc1[C@@H](C)Nc1nnc(C)c2cnc(N3CCC34CN(CCCF)C4)cc12 [Example P-228] , test system pERK in MKN1 cells, was 68.4

* * *

Kindly state Ki for each of the entries shown.
Experimental system: recombinant human SOS1 polypeptide (amino acids 560-1049) (Homo sapiens, UniProt Q07889)
Construct: corresponding to amino acids 560-1049, expressed in E. Coli; made in house; host or cells: E. coli
Sequence (Q07889 560-1049): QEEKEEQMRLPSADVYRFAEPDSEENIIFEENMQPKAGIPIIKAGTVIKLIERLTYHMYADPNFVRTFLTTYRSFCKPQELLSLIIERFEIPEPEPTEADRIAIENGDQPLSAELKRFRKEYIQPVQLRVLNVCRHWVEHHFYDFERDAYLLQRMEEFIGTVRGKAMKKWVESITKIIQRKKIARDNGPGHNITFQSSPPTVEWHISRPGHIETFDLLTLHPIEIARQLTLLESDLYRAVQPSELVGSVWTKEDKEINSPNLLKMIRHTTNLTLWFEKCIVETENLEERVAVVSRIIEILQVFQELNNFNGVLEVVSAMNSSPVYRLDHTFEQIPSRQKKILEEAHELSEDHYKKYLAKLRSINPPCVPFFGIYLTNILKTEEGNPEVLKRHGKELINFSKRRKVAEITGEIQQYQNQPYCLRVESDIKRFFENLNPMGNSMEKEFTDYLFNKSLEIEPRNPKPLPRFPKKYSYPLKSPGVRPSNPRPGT
Test: HTRF displacement assay: inhibition of labeled tracer binding to SOS1
Measurement setup: Table A, Morrison equation for competitive binding

For this compound ( Cc1c(C#N)cccc1[C@@H](C)Nc1nnc(C)c2cnc(N3C[C@@H]4CCCN[C@@H]4C3)cc12 (single isomer, unassigned) [Example 6-4] ), measured Ki is 2.74 nM

For this compound ( Cc1c(C#N)cccc1[C@@H](C)Nc1nnc(C)c2cnc(N3CCS(=N)(=O)CC3)cc12 [Example 1-84] ), measured Ki is 2.34 nM

For this compound ( Cc1nnc(N[C@H](C)c2ccc(C#N)cc2F)c2cc(N3C[C@H]4C[C@@H]3CO4)ncc12 [Example 1-96] ), measured Ki is 19.1 nM

For this compound ( Cc1c(C#N)cccc1[C@@H](C)Nc1nnc(C)c2cnc(N3CC(C)(N4CCCC4)C3)cc12 [Example 1-4] ), measured Ki is 1.22 nM

For this compound ( Cc1c(C#N)cccc1[C@@H](C)Nc1nnc(C)c2cnc(N3CCN(C)C(C)(C)C3)cc12 [Example 1-69] ), measured Ki is 0.849 nM

For this compound ( Cc1c(C#N)cccc1[C@@H](C)Nc1nnc(C)c2cnc(N3C[C@H]4C[C@@H]3CN4C)cc12 [Example 1-35] ), measured Ki is 1.19 nM

For this compound ( Cc1c(C#N)cccc1[C@@H](C)Nc1nnc(C)c2cnc(N(C)C[C@H]3CCCN3)cc12 [Example 1-56] ), measured Ki is 2.15 nM

For this compound ( Cc1c(C#N)cccc1[C@@H](C)Nc1nnc(C)c2cnc(N3CCCC34CN(C)C4)cc12 [Example 1-22] ), measured Ki is 0.248 nM

For this compound ( Cc1c([C@@H](C)Nc2nnc(C)c3cnc(N4CCOCC4)cc23)cc(N)nc1C(F)(F)F [Example 1-105] ), measured Ki is 4.39 nM

For this compound ( Cc1c(C#N)cccc1[C@@H](C)Nc1nnc(C)c2cnc(N(C)[C@@H]3CCN(C)C3)cc12 [Example 1-6] ), measured Ki is 1.56 nM

For this compound ( CCN1CC[C@H](N(C)c2cc3c(N[C@H](C)c4cccc(C#N)c4C)nnc(C)c3cn2)C1 [Example 1-89] ), measured Ki is 1.71 nM

For this compound ( Cc1c([C@@H](C)Nc2nnc(C)c3cnc(N4CC5(COC5)C4)cc23)cc(N)nc1C(F)(F)F [Example 1-107] ), measured Ki is 22.5 nM

For this compound ( Cc1c(C#N)cccc1[C@@H](C)Nc1nnc(C)c2cnc(N3C[C@@H]4CCCN(C)[C@@H]4C3)cc12 (single isomer, unassigned) [Example 6-6] ), measured Ki is 1.36 nM

For this compound ( Cc1nnc(N[C@H](C)c2cccc(C(F)(F)F)c2F)c2cc(N3CCN(C)CC3)c(C#N)cc12 [Example 6-17] ), measured Ki is 2.29 nM

For this compound ( Cc1nnc(N[C@H](C)c2cccc(C(F)F)c2F)c2cc(N3CCN(C)CC3)c(C#N)cc12 [Example 6-22] ), measured Ki is 1.49 nM

For this compound ( COCCN1CC2(C1)CN(c1cc3c(N[C@H](C)c4cccc(C#N)c4C)nnc(C)c3cn1)C2 [Example 1-59] ), measured Ki is 0.977 nM

For this compound ( Cc1c(C#N)cccc1[C@@H](C)Nc1nnc(C)c2cc(Br)c(N3CCN(C)CC3)cc12 [Example 8-1] ), measured Ki is 2.4 nM

For this compound ( Cc1c(C#N)cccc1[C@@H](C)Nc1nnc(C)c2cnc(-c3ccc(CN(C)C)cc3)cc12 [Example 3-1] ), measured Ki is 6.11 nM

For this compound ( Cc1c(C#N)cccc1[C@@H](C)Nc1nnc(C)c2cnc(N(C)C[C@@H]3CCCN3)cc12 [Example 1-55] ), measured Ki is 2.18 nM

For this compound ( Cc1nnc(N[C@H](C)c2cccc(C(F)(F)F)c2F)c2cc(N3CC[C@@H](N(C)C)C3)ncc12 [Example 1-86] ), measured Ki is 0.372 nM
